Measured %Inh, listed per entry.
# Tested on: SGK
# condition: concentration: 1 μM, replicates: in singlicate; n = 1;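 note: KINOMEscan kinase panel screen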
In your response, the unit should come after the numeric value.

Please review the following examples before continuing.
INSERT INTO assay_data (compound, property_name, result) VALUES
  ('Clc1ccc(-c2nn3ncccc3c2-c2ccnc(Nc3ccc4c(c3)OCCO4)n2)cc1', '%Inh', '35%'),
  ('O=C(Nc1ccccc1F)NC1CCN(c2ccnc(Nc3ccc(F)cc3)n2)CC1', '%Inh', '0%'),
  ('COc1ccc(-c2coc3ccc(-c4nnc(SCc5ccc(OC)c(C(F)(F)F)c5)o4)cc23)cc1', '%Inh', '0%'),
  ('Cc1ccc(C(=O)N2CC[C@@H](O)C2)cc1-n1c(C)cc(OCc2ccc(F)cc2F)c(Br)c1=O', '%Inh', '0%'),
  ('O=C(Nc1cccc(-c2nn3ccccc3c2-c2ccnc(Nc3cccc(F)c3)n2)c1)c1c(F)ccc(F)c1Cl', '%Inh', '10%'),
  ('Oc1cc(Nc2ccnc3cc(I)ccc23)ccc1F', '%Inh', '19%'),
  ('CC(=O)N1CCN(c2ccc(Nc3nccc(-c4sc(C(C)C)nc4-c4cccc(NS(=O)(=O)c5cccc(Cl)c5)c4)n3)cn2)CC1', '%Inh', '16%'),
  ('Cn1cc(-c2ccc3c(c2)CCN3C(=O)Cc2cccc(Cl)c2)c2c(N)ncnc21', '%Inh', '0%'),
  ('CCn1c(-c2nonc2N)nc2c(C#CC(C)(C)O)nc(OC[C@H](N)c3ccccc3)cc21', '%Inh', '6%'),
  ('COc1cc(Nc2nccc(N3CCC(NC(=O)Nc4cccc(C(C)=O)c4)C3)n2)cc(OC)c1OC (stereo not shown)', '%Inh', '0%');

Dear colleague, please send me the reported %Inh for CN(C)Cc1ccc(-c2ccc3c(Nc4ccc(Oc5ccccn5)cc4)ccnc3c2)o1 when you can.
0%

Dear colleague, please send me the reported %Inh for C[C@@H](Oc1cc(-n2cnc3cc(-c4ccnc(NCCS(C)(=O)=O)c4)ccc32)sc1C(N)=O)c1ccccc1Cl when you can.
4%

Dear colleague, please send me the reported %Inh for Cc1ccc(F)c(C(=O)Nc2cccc(-c3nn4ccccc4c3-c3ccnc(Nc4cccc(F)c4)n3)c2)c1F when you can.
11%

Dear colleague, please send me the reported %Inh for COc1cccc(NC(=O)NC2CCN(c3ccnc(Nc4cc(OC)c(OC)c(OC)c4)n3)C2)c1 (stereo not shown) when you can.
0%

Dear colleague, please send me the reported %Inh for O=C(Nc1n[nH]c2cc(-c3ccoc3)ccc12)C1CC1 when you can.
1%

Dear colleague, please send me the reported %Inh for Cc1occc1-c1ncc(OC[C@@H](N)Cc2c[nH]c3ccccc23)cc1-c1ccc2[nH]nc(C)c2c1.O=C(O)C(F)(F)F when you can.
0%

---

# System: ICK
# condition: concentration: 1 μM, replicates: in singlicate; n = 1
property.name: %Inh (%)
API: value field is a number in %; no unit string.

INSERT INTO assay_data (compound, numeric_result) VALUES
  ('Clc1ccc(-c2nn3ncccc3c2-c2ccnc(Nc3ccc4c(c3)OCCO4)n2)cc1 [GW829116]', 0);

State measured %Inh of the compound CC(C)c1nc(-c2cccc(NS(=O)(=O)c3c(F)cccc3F)c2F)c(-c2ccnc(Nc3ccc(N4CCOCC4)nc3)n2)s1 [GSK2008607] with ICK.
77

State measured %Inh of the compound Cl.NC(=O)c1cccc(Nc2nccc(Nc3ccc(Oc4c(Cl)cccc4Cl)c(Cl)c3)n2)c1 [GW659009] with ICK.
0
